This collection of values is drawn from patent US7763615B2.

Readings of CC50 for the listed compounds
System: LNCAP
protocol text: cells
Assay type: cell-based
conditions used: read-out: LC50; LNCAP, 48 hours exposure, SRB
Numbers only; they are read as nM.

Previously resolved entries follow.
{"compound": "COc1c(C)cc2c(c1O)[C@@H]1C3[C@@H]4SC[C@]5(C(=O)COC[C@@H](c6c7c(c(C)c(OC(C)=O)c64)OCO7)N3[C@@H](O)[C@H](C2)N1C)c1[nH]c2ccccc2c1CCN5C (stereo partly shown) [Compound 39]", "unit descriptor": "nM", "CC50": 94.7}
{"compound": "COc1c(C)cc2c(c1O)[C@@H]1C3[C@@H]4SC[C@]5(C(=O)COC[C@@H](c6c7c(c(C)c(OC(C)=O)c64)OCO7)N3[C@@H](O)[C@H](C2)N1C)c1[nH]c2ccccc2c1CCN5C (stereo partly shown) [Compound 40]", "unit descriptor": "nM", "CC50": 5.88}
{"compound": "COc1c(C)cc2c(c1O)[C@@H]1C3[C@@H]4SC[C@]5(NC(C)Cc6c5[nH]c5ccc(F)cc65)C(=O)COC[C@@H](c5c6c(c(C)c(OC(C)=O)c54)OCO6)N3[C@@H](O)[C@H](C2)N1C (stereo partly shown) [Compound 42]", "unit descriptor": "nM", "CC50": 11.7}

Then there is this compound:
Enquiry: // lookup CC50 for COc1c(C)cc2c(c1O)[C@@H]1C3[C@@H]4SC[C@]5(NC(C)Cc6c5[nH]c5ccc(O)cc65)C(=O)COC[C@@H](c5c6c(c(C)c(OC(C)=O)c54)OCO6)N3[C@@H](O)[C@H](C2)N1C (stereo partly shown) [Compound 38]
Return: 3.07

----------
Tested on: H-MEC-1
protocol text: Inhibition of cells growth by colorimetric assay (SRB), H-MEC-1
Format: cell-based
conditions used: Homo sapiens, HMEC-1, 48 h, H-MEC-1, 48 hours exposure, SRB
Overview of reported GI50 across a group of compounds:
Write the value in nM as a bare number.

Some entries whose results are on file:
{"compound": "COc1c(C)cc2c(c1O)[C@@H]1C3[C@@H]4SC[C@]5(NCCc6c5[nH]c5ccccc65)C(=O)COC[C@@H](c5c6c(c(C)c(OC(=O)OC(C)(C)C)c54)OCO6)N3[C@@H](O)[C@H](C2)N1C (stereo partly drawn)", "value reported": 0.613}
{"compound": "COc1c(C)cc2c(c1O)[C@@H]1C3[C@@H]4SC[C@]5(NCCc6c5[nH]c5c(C)cccc65)C(=O)COC[C@@H](c5c6c(c(C)c(OC(C)=O)c54)OCO6)N3[C@@H](O)[C@H](C2)N1C (stereo partly drawn)", "value reported": 84.3}
{"compound": "CCCC(=O)Oc1c(C)c2c(c3c1[C@H]1SC[C@]4(NCCc5c4[nH]c4ccccc54)C(=O)COC[C@@H]3N3C1[C@H]1c4c(cc(C)c(OC)c4O)C[C@@H]([C@@H]3C#N)N1C)OCO2 (stereo partly drawn)", "value reported": 347}
{"compound": "C=CCOc1c(OC)c(C)cc2c1[C@@H]1C3[C@@H]4SC[C@]5(C(=O)COC[C@@H](c6c7c(c(C)c(OC(C)=O)c64)OCO7)N3[C@@H](O)[C@H](C2)N1C)c1[nH]c2ccccc2c1CCN5CC=C (stereo partly drawn)", "value reported": 1990}
{"compound": "COc1c(C)cc2c(c1O)[C@@H]1C3[C@@H]4SC[C@]5(NC(C)Cc6c5[nH]c5ccc(O)cc65)C(=O)COC[C@@H](c5c6c(c(C)c(OC(C)=O)c54)OCO6)N3[C@@H](O)[C@H](C2)N1C (stereo partly drawn)", "value reported": 2.22}
{"compound": "CCCC(=O)Oc1c(C)c2c(c3c1[C@H]1SC[C@]4(NCCc5c4[nH]c4ccccc54)C(=O)COC[C@@H]3N3C1[C@H]1c4c(cc(C)c(OC)c4O)C[C@@H]([C@@H]3O)N1C)OCO2 (stereo partly drawn)", "value reported": 2.72}

We next turn to a different compound, shown below.
Enquiry: Entry C=CCOC(=O)Oc1c(C)c2c(c3c1[C@H]1SC[C@]4(NCCc5c4[nH]c4ccccc54)C(=O)COC[C@@H]3N3C1[C@H]1c4c(cc(C)c(OC)c4O)C[C@@H]([C@@H]3O)N1C)OCO2 (stereo partly drawn) : reported GI50 = ?
Return: 0.31

----------
System: MEL-28
protocol text: cells
Type: cell-based
conditions used: read-out: LC50; MEL-28
quantity: CC50
Answer shape: numeric part, then the unit.

{"compound": "COc1c(C)cc2c(c1O)[C@@H]1C3[C@@H]4SC[C@]5(NC(C)Cc6c5[nH]c5ccccc65)C(=O)COC[C@@H](c5c6c(c(C)c(OC(C)=O)c54)OCO6)N3[C@@H](O)[C@H](C2)N1C (some centres unmarked) [Compound 44]", "target": "MEL-28", "value reported": "10.3 nM"}

API: the following record is the query input.
Enquiry: What measured CC50 goes with COc1c(C)cc2c(c1O)[C@@H]1C3[C@@H]4SC[C@]5(NC(C)Cc6c5[nH]c5ccccc65)C(=O)COC[C@@H](c5c6c(c(C)c(OC(C)=O)c54)OCO6)N3[C@@H](O)[C@H](C2)N1C (some centres unmarked) [Compound 43] ?
Return: 1090 nM

----------
Listed below: IC (TGI) values for each entry.
Tested on: MEL-28
protocol text: cells
Assay type: cell-based
conditions used: Homo sapiens, SK-MEL-28, 48 h, MEL-28, 48 hours exposure, SRB
Please answer in the form of a number followed by its unit of measurement.

Consider the reported IC (TGI) for these compounds:
{"compound": "COc1c(C)cc2c(c1O)[C@@H]1C3[C@@H]4SC[C@]5(NCCc6c5[nH]c5ccc(F)cc65)C(=O)COC[C@@H](c5c6c(c(C)c(OC(C)=O)c54)OCO6)N3[C@@H](O)[C@H](C2)N1C (stereo partly shown)", "target": "MEL-28", "IC (TGI)": "7.16 nM"}
{"compound": "COc1c(C)cc2c(c1O)[C@@H]1C3[C@@H]4SC[C@]5(NCCc6c5[nH]c5ccccc65)C(=O)COC[C@@H](c5c6c(c(C)c(OC(=O)C(F)(F)C(F)(F)C(F)(F)F)c54)OCO6)N3[C@@H](C#N)[C@H](C2)N1C (stereo partly shown)", "target": "MEL-28", "IC (TGI)": "50.3 nM"}
{"compound": "COc1c(C)cc2c(c1O)[C@@H]1C3[C@@H]4SC[C@]5(NCCc6c5[nH]c5cc(F)ccc65)C(=O)COC[C@@H](c5c6c(c(C)c(OC(C)=O)c54)OCO6)N3[C@@H](O)[C@H](C2)N1C (stereo partly shown)", "target": "MEL-28", "IC (TGI)": "10.3 nM"}

Enquiry: State the recorded IC (TGI) for this entry: COc1ccc2c3c([nH]c2c1)[C@@]1(CS[C@@H]2c4c(OC(C)=O)c(C)c5c(c4[C@H](COCC1=O)N1C2[C@H]2c4c(cc(C)c(OC)c4O)C[C@@H]([C@@H]1O)N2C)OCO5)NCC3 (stereo partly shown)
Return: 12.7 nM

----------
Examples of compounds with documented IC (TGI) follow.
Tested on: K562
protocol text: cells
Assay type: cell-based
conditions used: Homo sapiens, K562, 48 h, K562, 48 hours exposure, SRB
Excerpt: The finality of these assays is to interrupt the growth of a “in vitro” tumor cell culture by means of a continued exhibition of the cells to the sample to be testing. A colorimetric type of assay, using sulphorhodamine B (SRB) reaction has been adapted for a quantitative measurement of cell growth and viability [following the technique described by Philip Skehan, et al. (1990), New colorimetric cytotoxicity assay for anticancer drug screening, J. Natl. Cancer Inst., 82:1107-1112] […]
Hi, when you answer, please include the unit after the number. Thanks!

Use the examples below as a reference point.
{"compound": "COc1c(C)cc2c(c1O)[C@@H]1C3[C@@H]4SC[C@]5(C(=O)COC[C@@H](c6c7c(c(C)c(OC(C)=O)c64)OCO7)N3[C@@H](C#N)[C@H](C2)N1C)c1[nH]c2ccccc2c1CCN5C (stereo partly drawn)", "IC (TGI)": "174 nM"}
{"compound": "C=COC(=O)Oc1c(C)c2c(c3c1[C@H]1SC[C@]4(NCCC5c6ccccc6NC54)C(=O)OC[C@@H]3N3C1[C@H]1c4c(cc(C)c(OC)c4OC(=O)OC=C)C[C@@H]([C@@H]3C#N)N1C)OCO2 (stereo partly drawn)", "IC (TGI)": "44.7 nM"}

Enquiry: K562 / IC (TGI) / COc1c(C)cc2c(c1O)[C@@H]1C3[C@@H]4SC[C@]5(NCCc6c5[nH]c5ccccc65)C(=O)COC[C@@H](c5c6c(c(C)c(OC(=O)OC(C)(C)C)c54)OCO6)N3[C@@H](C#N)[C@H](C2)N1C (stereo partly drawn) : value?
Return: 466 nM
